Assay: Whole blood stability assay, rat whole blood
Assay type: in vitro ADME
Settings: 37° C.
ENDPOINT_NAME: half-life at 5 μmol/L (h)
Expressed in h, but write only the number.

C=CC(=O)N1CCN(c2nc(=O)n(-c3c(C)ccnc3C(C)C)c3nc(-c4c(O)cccc4F)c(F)cc23)[C@@H](C)C1 : 1.85

Consider now this further compound.
Prompt: Look at this compound and give its reported half-life at 5 μmol/L. C=C(F)C(=O)N1CCN(c2nc(OC[C@@H]3CCCN3C)nc3c2CCN(c2cccc4cccc(Cl)c24)C3)C[C@@H]1CC#N
Response: 13.1

* * *

Experiment: Pharmacokinetics study in mice (IV and PO)
Type: in vivo
Details: mouse, plasma; ICR male mice, oral gavage, 5 mg/kg
ENDPOINT_NAME: AUC(0-inf) (ng·h/mL)
All answers are understood in ng·h/mL, so give the number only.

Prompt: Reported AUC(0-inf), molecule C=CC(=O)N1CCN(c2nc(=O)n(-c3c(C)ccnc3C(C)C)c3nc(-c4c(O)cccc4F)c(F)cc23)[C@@H](C)C1 : ____
Response: 6.12

* * *

Target: CYP 3A4 (Homo sapiens)
Sequence (P08684 whole entry): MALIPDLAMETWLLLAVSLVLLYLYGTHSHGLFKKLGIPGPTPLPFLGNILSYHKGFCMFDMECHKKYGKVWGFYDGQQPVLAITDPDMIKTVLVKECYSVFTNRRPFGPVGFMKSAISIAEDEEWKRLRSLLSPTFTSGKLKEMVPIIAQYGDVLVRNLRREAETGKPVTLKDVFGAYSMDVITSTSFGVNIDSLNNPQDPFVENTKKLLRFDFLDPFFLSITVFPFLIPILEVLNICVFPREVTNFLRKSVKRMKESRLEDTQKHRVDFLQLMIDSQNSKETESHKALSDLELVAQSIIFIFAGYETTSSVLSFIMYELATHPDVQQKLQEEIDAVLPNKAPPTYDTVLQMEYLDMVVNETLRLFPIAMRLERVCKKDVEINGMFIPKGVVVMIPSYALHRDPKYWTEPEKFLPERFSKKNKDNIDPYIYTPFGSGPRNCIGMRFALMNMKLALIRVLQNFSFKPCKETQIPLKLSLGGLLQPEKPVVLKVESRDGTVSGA
Test: CYP inhibition test, human liver microsomes, CYP3A4
Settings: IC50(μM), CYP 3 A4-T, substrate testosterone
Source text: • 1. Test purpose: to evaluate the inhibitory ability of some of the example compounds of the present invention against CYP1A2, 2B6, 2C8, 2C9, 2C19, 2D6 and 3A4 via human liver microsomes. • 2. […] Test method: • 1. K/Mg buffer: the components were 0.1 mol/L potassium phosphate and 5 mmol/L magnesium chloride with pH 7.4±0.1, preheated. • 2. […]
Below: a set of entries, each annotated with reported IC50.

C=C(F)C(=O)N1CCN(c2nc(OC[C@@H]3CCCN3C)nc3c2CCN(c2cccc4cccc(Cl)c24)C3)C[C@@H]1CC#N : > 10 µM

The record that follows has no IC50 shown yet.
Prompt: What IC50 appears in the records for this molecule with CYP 3A4 (Homo sapiens)? C=CC(=O)N1CCN(c2nc(=O)n(-c3c(C)ccnc3C(C)C)c3nc(-c4c(O)cccc4F)c(F)cc23)[C@@H](C)C1
Response: > 10 µM

* * *

Experiment: Pharmacokinetic properties in rats (IV and PO, LC-MS/MS)
Assay type: in vivo
Conditions: male, Sprague-Dawley (SD), rat, plasma, intravenous injection, 1 mg/kg
Measured Cmax, listed per entry.
Your answer should be a plain number; it is taken to be in ng/mL.

C=CC(=O)N1CCN(c2nc(=O)n(-c3c(C)ccnc3C(C)C)c3nc(-c4c(O)cccc4F)c(F)cc23)[C@@H](C)C1 [AMG510] : 762

Prompt: Item C=C(F)C(=O)N1CCN(c2nc(OC[C@@H]3CCCN3C)nc3c2CCN(c2cccc4cccc(Cl)c24)C3)C[C@@H]1CC#N [MRTX849] has what recorded Cmax?
Response: 137
